Kindly state FOB for each of the entries shown.
Target: T1, mouse SIRPα on cells (mouse, UniProt P97797 32-513)
T1 construct: whole, on cells
T1 sequence (looked up): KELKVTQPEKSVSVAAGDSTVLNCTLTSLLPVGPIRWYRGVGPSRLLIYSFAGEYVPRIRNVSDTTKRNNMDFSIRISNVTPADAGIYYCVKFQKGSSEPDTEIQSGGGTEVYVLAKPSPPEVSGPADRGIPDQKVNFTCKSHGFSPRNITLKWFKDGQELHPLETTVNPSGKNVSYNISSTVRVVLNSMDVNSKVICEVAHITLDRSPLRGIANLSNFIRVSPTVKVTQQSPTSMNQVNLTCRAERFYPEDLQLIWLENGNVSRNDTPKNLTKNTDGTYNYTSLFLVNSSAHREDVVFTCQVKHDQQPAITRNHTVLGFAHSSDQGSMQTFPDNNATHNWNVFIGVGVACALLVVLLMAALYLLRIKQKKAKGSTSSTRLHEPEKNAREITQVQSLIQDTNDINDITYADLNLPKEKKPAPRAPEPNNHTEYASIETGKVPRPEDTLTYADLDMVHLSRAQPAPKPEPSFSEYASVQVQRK
Assay: flow cytometry;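 note: antibodies tested at 1 µg/ml for 30 min on ice against receptor-expressing cells, detected with a PE-labelled secondary antibody, read as mean fluorescence intensity relative to background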
Numbers only, in fold over background.

| binder | FOB / fold over background |
| --- | --- |
| SB-45 (antibody, V domains shown, IgG) VH: QVQLQESGPGLVKPSETLSLTCAVSGYSISSGYYWAWIRQPPGKGLEWIGSIYHSGSTYYNPSLKSRVTISVDTSKNQFSLKLSSVTAADTAVYYCARDLSRGYAVSGMDVWGQGTTVTVSS VL: VLTQSPGTLSLSPGERATLSCRASQSVSSSFLAWYQQKPGQAPRLLIYGASSRATGIPDRFSGSGSGTDFTLTISRLEPEDFAVYYCQQVVSVPTFGGGTKVEIK | 1.2 |

Return reported FOB values for all items listed beneath this line.
1. SB-23 (antibody, V domains shown, IgG) VH: QVQLVQSGAEVKKPGSSVKVSCKASGGTFSSYAISWVRQAPGQGLEWMGGIAPIFGTANYAQKFQGRVTITADESTSTAYMELSSLRSEDTAVYYCARTTYRDYYMDVWGKGTTVTVSS VL: DIQMTQSPSSLSASVGDRVTITCRASQSISSYLNWYQQKPGKAPKLLIYAASSLQSGVPSRFSGSGSGTDFTLTISSLQPEDFATYYCQQAYPYPLTFGGGTKVEIK
2. SB-2 (antibody, V domains shown, IgG; also called SB-2 (p)) VH: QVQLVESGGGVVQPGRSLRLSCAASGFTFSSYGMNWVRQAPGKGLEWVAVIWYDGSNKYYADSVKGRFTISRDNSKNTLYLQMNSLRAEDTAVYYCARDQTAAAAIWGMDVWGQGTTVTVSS VL: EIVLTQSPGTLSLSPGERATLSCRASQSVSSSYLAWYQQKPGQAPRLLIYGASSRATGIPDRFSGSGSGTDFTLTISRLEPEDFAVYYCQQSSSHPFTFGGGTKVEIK
3. SB-40 (antibody, V domains shown, IgG; also called SB-40 (p)) VH: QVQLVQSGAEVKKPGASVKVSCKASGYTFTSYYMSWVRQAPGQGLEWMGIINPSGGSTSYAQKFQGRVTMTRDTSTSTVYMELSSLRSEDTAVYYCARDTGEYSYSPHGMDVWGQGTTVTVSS VL: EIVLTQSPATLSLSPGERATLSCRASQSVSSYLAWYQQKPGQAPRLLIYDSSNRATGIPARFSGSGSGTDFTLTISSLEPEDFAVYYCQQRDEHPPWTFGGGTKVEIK

[A]
1. 1.4
2. 1.1
3. 1.2

[Q] What measured FOB goes with SB-25 (antibody, V domains shown, IgG) VH: QVQLVQSGAEVKKPGSSVKVSCKASGGTFSSLAISWVRQAPGQGLEWMGGIIPIFGTANYAQKFQGRVTITADESTSTAYMELSSLRSEDTAVYYCARSGGDYSGYDYASGMDVWGQGTTVTVSS VL: DIQMTQSPSSVSASVGDRVTITCRASQGISSWLAWYQQKPGKAPKLLIYAASSLQSGVPSRFSGSGSGTDFTLTISSLQPEDFATYYCQQVNSFPWTFGGGTKVEIK ?
[A] 1.3
